Measured phage ELISA signal ratio values are reported for all entries that follow.
EXPERIMENTAL_SYSTEM: T1, SPSB2 26-221 SPRY (domain begin residue: 26, domain end residue: 221), Q99619
T1 chain: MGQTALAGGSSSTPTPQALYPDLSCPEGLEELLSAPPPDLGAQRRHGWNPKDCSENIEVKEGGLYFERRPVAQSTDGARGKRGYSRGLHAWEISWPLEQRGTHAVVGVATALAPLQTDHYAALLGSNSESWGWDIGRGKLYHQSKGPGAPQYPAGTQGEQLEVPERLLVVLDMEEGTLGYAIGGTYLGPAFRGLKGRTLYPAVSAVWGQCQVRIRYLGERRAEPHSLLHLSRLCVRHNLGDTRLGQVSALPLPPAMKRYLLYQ
ASSAY_PROTOCOL: phage ELISA signal ratio (GST-PRM binding over GST background); higher = stronger binding of peptide-phage to the PRM
The response must contain the number and no unit.

These solved cases illustrate the format of a correct answer.
BINDER: WREEPHFHRDENGNII
phage ELISA signal ratio: 28.9
//
BINDER: GFLDPNQNIVRETLIL
phage ELISA signal ratio: 34.2
//
BINDER: WDLDWAVSDHNGNVMV
phage ELISA signal ratio: 41.6

# input Answer with reported phage ELISA signal ratio of FEEMELVGDLNNNMMP
# output 32.8

# input Fill in phage ELISA signal ratio for record MEVFDMNGNYPVRSRT
# output 25

# input For the binder KKDWNNNIEAWLVGEE , give its reported phage ELISA signal ratio.
# output 36.6

# input Return reported phage ELISA signal ratio. Input binder: MEKDMNGNMAVFEMHH
# output 39.2

Origin of measurements: the supplement of paper PMC7724964
